Target: XIAP BIR3 (Homo sapiens, UniProt P98170)
Construct: covering amino acids 255 to 356; GST; His
Sequence (P98170 255-356): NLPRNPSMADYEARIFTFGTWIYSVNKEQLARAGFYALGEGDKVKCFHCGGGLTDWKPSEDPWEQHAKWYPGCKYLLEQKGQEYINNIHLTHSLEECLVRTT
Assay: Binding experiment of XIAP BIR3 (fluorescence polarization)
Conditions: 30 nM XIAP BIR3, 5 nM probe ARPFAQ-K(5-FAM)-NH2, 60 min
property measured: IC50 (µM)

Consider the following illustrative entries.
structure as smiles | unit of measurement | IC50
CN[C@@H](C)C(=O)N[C@H](C(=O)N1CCC[C@H]1Cn1cc(C(N)=O)c2cc(F)ccc21)C1CCCCC1 | µM | 0.042
CN[C@@H](C)C(=O)N[C@H](C(=O)N1CCC[C@H]1Cn1cc(C(=O)N(C)C)c2cc(Cl)ccc21)C1CCCCC1 | µM | 0.0213

[I] CN[C@@H](C)C(=O)N[C@H](C(=O)N1CCC[C@H]1Cn1cc(N2CCN(C)C2=O)c2cc(Cl)ccc21)C1CCCCC1
[II] CN[C@@H](C)C(=O)N[C@H](C(=O)N1CCC[C@H]1Cn1cc(C#N)c2cc(F)ccc21)C1CCCCC1
# returns the entry with the larger IC50; inputs I and II API: response body contains the label of the selected item.
II
